assay: Primary qHTS for inhibitors of nuclear receptor binding SET domain protein 2 (NSD2) in an isogenic RCH-ACV NSD2 p.E1099K mutant (9B) (AID 1645876); settings: RCH-ACV (leukaemia line) NSD2 E1099K (9B) viability, CellTiter-Glo, 72 h; series mostly up to 44.9 µM; also: nearly all actives have a fitted effect of over 70% in size
Results filed as inconclusive are left out. Calls of active or inactive are those of the source. Calls follow the shape of the dose curve; as a rule, active = well fitted inhibition curve with a large enough effect; inconclusive = small, poorly fitted or top-dose-only effect; inactive = flat fitted curve, though single readings scatter.
Please state which outcome applies, choosing from class 1 = active, class 0 = inactive

As a guide, the following entries are already answered.
# Cpd Smiles, Discrete Label
data = [
    ("O=C(O)COc1nc(Cl)c(Cl)cc1Cl", "class 0"),
    ("CN[C@@H]1Cc2cccc3[nH]c(=O)n(c23)C1", "class 0"),
]

### Prompt Check the results log: what was the call for C[C@](O)(COc1ccc(C#N)cc1)C(=O)Nc1ccc(C#N)c(C(F)(F)F)c1 ?
### Response class 1

### Prompt Check the results log: what was the call for COC[C@H]1OC(=O)c2coc3c2[C@@]1(C)C1=C(C3=O)[C@@H]2CC[C@H](O)[C@@]2(C)C[C@@H]1OC(C)=O ?
### Response class 1

### Prompt Check the results log: what was the call for CC[C@@H](C(N)=O)N1CCCC1=O ?
### Response class 0

### Prompt Check the results log: what was the call for COc1ccc(N(C(=O)Oc2c(C)cccc2C)c2ccnc(Nc3ccc(N4CCN(C)CC4)cc3)n2)c(OC)c1 ?
### Response class 1

### Prompt Check the results log: what was the call for CC(=O)[O][Hg][c]1ccccc1 ?
### Response class 1
